# Tested on: SF-268
# Experiment notes: NCI tumour cell line growth inhibition, 48 h
Active and inactive are the calls of the source. Rule as the data show it: active = GI50 up to about 1.1 µM and inactive = higher.
Assay endpoint: GI50

Compound | GI50
CC(C)(C)OC(=O)N1C2CCCC23O[C@@H]1c1cc2c(cc1C3=O)OCO2 (stereo not given in full) | 41.8 µM (inactive)
Cc1c(C(=O)NCCO)[n+]([O-])c2cc(Cl)ccc2[n+]1[O-] | > 100 µM (inactive)
CC(Oc1cc2oc(=O)cc(-c3ccccc3)c2cc1Cl)C(=O)O (stereo not given) | > 100 µM (inactive)

Form field GI50, entry `CCN(CC)c1ccc2cc(-c3nc4ccccc4n3C)c(=O)oc2c1` : 2.05 µM (inactive)

# compound C=CCN(N=O)C(=O)NCCCC(NC(C)=O)C(=O)NCc1ccccc1 (stereo not given) ; its GI50 = > 100 µM (inactive)

Consider `Cn1ncc2c(NCc3ccccc3)ncnc21` . Its measured GI50 is > 100 µM (inactive)

Quick note, GI50 for `COc1cc(/C=C\c2ccc(OC(C)=O)cc2)cc(OC)c1OC` landed at 9.59 µM (inactive)

---

# System: RXF 393
# Experiment notes: NCI tumour cell line growth inhibition, 48 h
Active and inactive are the calls of the source. Cut-off read from the data, not from the text of the source: active = GI50 up to about 1.1 µM and inactive = higher.
# GI50 annotations

Example entries begin here.
Compound | Assayed system | GI50
Cc1nc2ccccc2n1Cc1nnc(N)o1 | RXF 393 | > 100 µM (inactive)
COC(=O)c1sc2ncc3c(c2c1N)CCCCCC3 | RXF 393 | > 100 µM (inactive)
Oc1c2cccc1Cc1cccc3c1OCCOCCOCCOCCOc1c(cccc1Cc1cccc(c1O)C3)C2 | RXF 393 | > 100 µM (inactive)
CC1=NN(c2nc(N)nc(-c3cc4ccccc4oc3=N)n2)C(C)(C)C1 | RXF 393 | 20.7 µM (inactive)
CCN(CC)CCNC(=O)c1cc2cc(NC(=O)c3cc4cc([N+](=O)[O-])ccc4[nH]3)ccc2[nH]1 | RXF 393 | > 43.9 µM (inactive)
COC(=O)CSc1cc(Cl)c(C)cc1S(=O)(=O)Nc1n[nH]c(N)n1 | RXF 393 | > 10 µM (inactive)
COC(=O)C1C2CC3C1C3C2C(=O)OC (configuration not stated) | RXF 393 | > 100 µM (inactive)
CCOC(=O)C(C)(Cc1ccc(O)cn1)NC(=O)c1ccccc1 (configuration not stated) | RXF 393 | > 100 µM (inactive)
C=CCC1=C2CCCCC2CCC1=O (configuration not stated) | RXF 393 | > 100 µM (inactive)
CC(CC(C)[C@H]1CCC2[C@H]3C(CC(=O)[C@@]21C)[C@@]1(C)CCC(O)C[C@H]1C[C@@H]3O)C(=O)O (some centres not stated) | RXF 393 | > 100 µM (inactive)

Note to self: GI50 recorded for `CC(C)(C)c1ccc(OC(=O)Nc2ccc(O)c(C(=O)O)c2)cc1` was > 100 µM (inactive)

Measured GI50, CC(Oc1cc2oc(=O)cc(-c3ccccc3)c2cc1Cl)C(=O)O (configuration not stated) : > 100 µM (inactive)

Looking up CC(=O)OCC1OC(n2c(-c3ccccc3)c(C(C)=O)c(-c3ccc(Cl)cc3)c(C#N)c2=S)C(OC(C)=O)C(OC(C)=O)C1OC(C)=O (configuration not stated) , I found its GI50 recorded as 65.5 µM (inactive)

Value of measured GI50 for the entry CSCSCC(CO)NC(=O)/C=C/c1c(C)nc(O)nc1O (configuration not stated) : > 100 µM (inactive)

// GI50 value for `Cc1c(C(=O)NCCO)[n+]([O-])c2cc(Cl)ccc2[n+]1[O-]` : > 100 µM (inactive)

response.value for `CSC1=N/C(=C\c2ccc(C)cc2)C(=O)N1` (field: GI50) = 26.4 µM (inactive)

Entry `O=C(O)CCC(O)=C1S(=O)(=O)OCCOS1(=O)=O` , GI50 reported as > 100 µM (inactive)

Query `CN(C)c1ccc(/C=C2/SC(=S)NC2=O)cc1` yields GI50 of > 100 µM (inactive)

The value of GI50 measured for the compound O=c1ncccn1[C@@H]1O[C@H](CO)[C@H](O)C1O (some centres not stated) turned out to be 80.9 µM (inactive)

`Cc1ccc(S(=O)(=O)n2ccc(-c3ccc4ccn(S(=O)(=O)c5ccc(C)cc5)c4c3)c2)cc1` yielded GI50 of 12.9 µM (inactive)

Kindly note the recorded GI50 for CCN1CCC(O)(/C=C/c2ccc(C)cc2)C(C(=O)/C=C/c2ccc(C)cc2)C1 (configuration not stated) , which is 2.79 µM (inactive)

GI50 reading for `CCCCc1ccc(Nc2nc(Cl)c3c(ncn3COCCOC(C)=O)n2)cc1` : 12.9 µM (inactive)

---

# Test system: KM12
# Experiment notes: NCI tumour cell line growth inhibition, 48 h
The source made the active and inactive calls. No stated cut-off is given here; in the data, active = GI50 up to about 1.1 µM and inactive = higher.
// classify into TRUE (active), FALSE (inactive)

Examples with answers:
Molecule | Assigned label
O=c1cc(-c2ccccc2)c2ccc(O)c(CN(CCCl)CCCl)c2o1 | FALSE
O=c1oc2cc(O)ccc2c(O)c1C(c1ccccc1F)c1c(O)c2ccc(O)cc2oc1=O | FALSE

-- ask I'd appreciate the recorded outcome for COc1cc2[nH]c3c(c2cc1OC)CCN[C@@]31CC[C@@]2(CC3c4c(cc(OC)c(O)c42)CCN3C)C[C@@H]1OC (some centres not stated) from this test.
-- reply FALSE

-- ask Call for entry `CCOC(=O)c1nc2ccccc2nc1Nc1ccc(OC)cc1` :
-- reply FALSE

-- ask Test call for this molecule, please: `CO[C@H]1C=C[C@@]23c4cc5c(cc4CO[C@]2(O)CN(C)[C@H]3C1)OCO5`
-- reply FALSE

---

# Test system: LOX IMVI
# Experiment notes: NCI tumour cell line growth inhibition, 48 h
Active and inactive are the calls of the source. Cut-off read from the data, not from the text of the source: active = GI50 up to about 1.1 µM and inactive = higher.
Classes to choose from: YES for active, NO for inactive

// known answers, use as guide
Molecule | Assayed system | Assigned label
O=C(CC1(O)C(=O)Nc2c(Cl)ccc(Cl)c21)c1ccc2ccccc2c1 (stereo not given) | LOX IMVI | NO
O=C1C=C(c2c(O)ccc3ccccc23)c2cc(O)ccc2C1=O | LOX IMVI | NO

-- ask Name the outcome recorded for `N#Cc1c(-c2cccc(Br)c2)cc(-c2ccc(Cl)cc2)nc1N` in the assay.
-- reply NO

-- ask What outcome does the record of this test show for `Cc1cc2c(cc1C)[n+]([O-])c(-c1c(Cl)cccc1Cl)c(N)[n+]2[O-]` ?
-- reply NO

-- ask # outcome recorded in this test, key = `Cc1nc(N/N=C/c2ccccc2Cl)[nH]c(=O)c1CCO`
-- reply NO

-- ask Per the assay record, what outcome was assigned to `C/C(=N\NC(=S)N1CCCC1)c1nc2cccnc2[nH]1` ?
-- reply YES

-- ask Could you check what this test reported for CCN1CCC(O)(/C=C/c2ccc(C)cc2)C(C(=O)/C=C/c2ccc(C)cc2)C1 (stereo not given) ?
-- reply NO

-- ask What is the recorded call for this molecule in the test? `NC(=O)C(=CNC(N)=S)C(N)=O`
-- reply NO

-- ask State the result this test recorded for `CCOC(=O)c1sc(N)nc1N1CCCC1` .
-- reply NO

---

# System: MDA-MB-231
# Experiment notes: NCI tumour cell line growth inhibition, 48 h
Active and inactive are the calls of the source. Cut-off read from the data, not from the text of the source: active = GI50 up to about 1.1 µM and inactive = higher.
Hi! Could you answer with just one of these? T = active, F = inactive

Solved cases below.
Molecule | Assayed system | Assigned label
C=C(C)[C@@H]1CC[C@]2(C(=O)O)CC[C@]3(C)[C@H](CCC4[C@@]5(C)CC[C@H](C(=O)/C=C/c6ccc(O)c(O)c6)C(C)(C)[C@@H]5CC[C@]43C)[C@@H]12 (stereo not given in full) | MDA-MB-231 | F
C(=N\OCCc1ccccc1)/c1cccnc1 | MDA-MB-231 | F
Cc1ccc(C2SCC(=O)N2NC(=O)c2ccncc2)s1 (stereo not given) | MDA-MB-231 | F

-- ask Hi, do you know how `Cc1cc(O)cc(O)c1C(=O)O[C@]1(C)C(=O)C=C2C=C(/C=C/C(=O)O)OC=C2C1=O` came out in this test?
-- reply F

-- ask Please share the test call associated with `Cc1nc(SCC(N)=O)c2sc(=S)n(-c3ccccc3)c2n1` .
-- reply F

-- ask Could you please tell me the result logged for `N#C[C@H](C(=O)c1ccccc1F)c1nc2ccccc2[nH]1` in this assay?
-- reply F

-- ask Returns: the outcome recorded for `C/C(=N\NC(=S)N1CCCC1)c1nc2cccnc2[nH]1` in this assay.
-- reply F

-- ask Outcome? COc1cc2c3cc1Oc1c(OC)c(OC)cc4c1C(Cc1ccc(O)c(c1)Oc1ccc(cc1)CC3N(C)CC2)CN(C)C4 (stereo not given)
-- reply F

-- ask Just curious, what result did `Cc1noc(NS(=O)(=O)c2ccc(NC(=O)c3ccc4nc5ccccc5c(Nc5ccc(S(=O)(=O)Nc6onc(C)c6C)cc5)c4c3)cc2)c1C` get here?
-- reply F

Origin of the recorded values: ChEMBL document CHEMBL1201862
